assay remarks: Particle size of the powders (AEROSIZER, SYMPATEC)
Format: physicochemical
assay setup: powder, instrument not stated
Counter-ions that a name gives are not always drawn.
quantity name: MMD (μm)
Form entry: value (μm) — number only.

Solved entries:
[[record]]
compound = "CN1C[C@H](C(=O)N[C@]2(C)O[C@@]3(O)[C@@H]4CCCN4C(=O)[C@H](Cc4ccccc4)N3C2=O)C[C@@H]2c3cccc4[nH]cc(c34)C[C@H]21 [DHE micronized sample, dihydroergotamine mesylate]"
quantity_name = "MMD"
unit_symbol = "μm"
assay_value = 15.1

[[record]]
compound = "CCC(=O)O[C@]1(C(=O)SCF)[C@H](C)C[C@H]2[C@@H]3C[C@H](F)C4=CC(=O)C=C[C@]4(C)[C@@]3(F)[C@@H](O)C[C@@]21C [fluticasone propionate sample D, fluticasone propionate]"
quantity_name = "MMD"
unit_symbol = "μm"
assay_value = 2.0

[[record]]
compound = "CC(C)(C)NCC(O)c1ccc(O)c(CO)c1 (stereo not shown) [salbutamol micronized sample, salbutamol]"
quantity_name = "MMD"
unit_symbol = "μm"
assay_value = 14.5


Now let's try a different one.
Return MMD (reported value) for this compound: CCCCCCCCCCCCCCCC(=O)OC1CCCn2c1nc(C)c(CCN1CCC(c3noc4cc(F)ccc34)CC1)c2=O (stereo not shown) [risperidone-(9-hydroxy)-palmitate] 8.1
